Provide the reported switch fluorescence ratio of each item.
Test system: ATP;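 also: ATP exposure 15 min at 22 °C before imaging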
Assay: switch fluorescence ratio, 500 uM ATP over buffer (Cy3 cluster intensity, sum of 5 cycles each) (fold (ratio)); higher = stronger signal-on switching upon ATP binding; sequences stand for … in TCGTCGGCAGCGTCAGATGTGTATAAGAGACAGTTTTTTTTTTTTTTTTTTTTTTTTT…TC
Conditions: aptamer strand: ATP DNA aptamer (quencher-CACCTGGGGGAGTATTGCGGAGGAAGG + anchor), 100 nM annealed; ATP concentration: 500 uM
Answers are plain numbers.

Please review the following examples before continuing.
AAGCTACGGC : 1.02
TTTTGATGAT : 1.02

List reported switch fluorescence ratio for each of these sequences:
1. GGGGAGAACT
2. GTTTATGGTG
3. GCTTTCGTTA
4. GGGGGTCGAC
5. GTTTCGAGGG
6. AGGTTGTGGC
7. TGCCTGGTAT

Marked response:
[0.992, 0.999, 1.02, 0.996, 0.974, 0.992, 0.984]

List reported switch fluorescence ratio for each of these sequences:
1. GGCATTATAT
2. AGGAAGTTGG
3. GTCTAACTGT
4. GGGGTCATTT

Marked response:
1: 0.998; 2: 0.979; 3: 0.994; 4: 0.979

List reported switch fluorescence ratio for each of these sequences:
1. CGGGGGCAGA
2. AGATATGCGT

Marked response:
1
1.02
